Target: T1, recombinant purified human Nectin-4-Fc fusion protein (human, UniProt Q96NY8 32-349)
T1 construct: Bought ('Aero Biosystems' as printed); not shown: Fc part of the bought fusion protein; captured by anti-human IgG Fc sensors
T1 sequence: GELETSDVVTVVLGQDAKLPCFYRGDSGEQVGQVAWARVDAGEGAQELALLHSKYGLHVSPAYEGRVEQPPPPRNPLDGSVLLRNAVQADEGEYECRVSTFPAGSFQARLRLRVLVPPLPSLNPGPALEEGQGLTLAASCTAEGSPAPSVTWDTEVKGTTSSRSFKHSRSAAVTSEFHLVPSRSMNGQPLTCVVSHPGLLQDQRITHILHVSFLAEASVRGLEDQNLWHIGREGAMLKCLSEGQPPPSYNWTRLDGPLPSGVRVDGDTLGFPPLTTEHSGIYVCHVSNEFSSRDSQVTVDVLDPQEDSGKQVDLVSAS
Assay: BLI (Octet), Nectin-4-Fc on anti-human Fc sensors, run 1
recorded endpoint: kon (M⁻¹ s⁻¹)
Unit M⁻¹ s⁻¹ implied. Number only.

kon lookup needed for LV1184xVδ2 (bispecific antibody, Orientation N-term-anti-Nectin-4 VHH-linker-anti-Vδ2 VHH (5C8); no Fc; also called Nectin-4xVδ2 bispecific VHH) EVQLVESGGGLVQAGGSLRLSCAASGSISSINLMGWFRQAPAKQRELVTSISPGGSVRYADSVKGRFTISRDVAKNTVDLQMNSLKPEDTAVYYCAAESERTYYFDSWGQGTQVTVSSGGGGSEVQLVESGGGLVQAGGSLRLSCAASGRPFSNYAMGWFRQAPGKEREFVAAISWSGGSTSYADSVKGRFTISRDNAKNTVYLQMNSPKPEDTAIYYCAAQFSGADYGFGRLGIRGYEYDYWGQGTQVTVSS , thanks.
973000
